The following compounds are shown together with reported IC50 cell viability values.
system: A549; assay: IC50 cell viability (Alamar Blue, 96 h)
Number in nM, nothing else.

{"compound": "COc1cc2c(cc1-c1c(C)noc1C)ncc1[nH]c(=O)n([C@H](C)c3ccccn3)c12 [I-BET 151]", "recorded_number": 738}

Consider O=C(CCCCCCC(=O)Nc1ccccc1)NO [Vorinostat] . Its measured IC50 cell viability is 2070

Consider CCN(CCCOc1ccc2c(Nc3cc(CC(=O)Nc4cccc(F)c4)[nH]n3)ncnc2c1)CCOP(=O)(O)O [Barasertib] . Its measured IC50 cell viability is 203

Consider CN1CC[C@H](c2c(O)cc(O)c3c(=O)cc(-c4ccccc4Cl)oc23)[C@H](O)C1 [Flavopiridol] . Its measured IC50 cell viability is 61

Consider Cc1csc(-c2nnc(Nc3ccc(Oc4ncccc4-c4ccnc(N)n4)cc3)c3ccccc23)c1 [AMG-900] . Its measured IC50 cell viability is 6.42
